experiment: Inhibition of jack beans alpha-mannosidase
Observable: pKi
Would you please state pKi, meaning minus log10 of the concentration in mol/L, as a bare number?

# compound CN(C)c1ccc(-c2cnc(-c3ccc(S(=O)(=O)NCCCCCCN4C[C@H](O)[C@@H](O)[C@H](O)[C@H]4CO)cc3)o2)cc1 ; its pKi = 4.19

###

assay: Inhibition of Streptomyces plicatus beta-D-hexosaminidase
Observable: Ki (nM)
Form entry: value (nM) — number only.

# compound CC(=O)N[C@H]1CN(CCCCCCNS(=O)(=O)c2cccc3c(N(C)C)cccc23)[C@H](CO)[C@@H](O)[C@@H]1O ; its Ki = 1800
